Catalogue of Binding (OD 450 nm) values
Target: T1, mCry3A insecticidal protein (Bacillus thuringiensis subsp. …, UniProt P0A379 48-644, limits assumed)
T1 construct: also called modified Cry3A
T1 sequence: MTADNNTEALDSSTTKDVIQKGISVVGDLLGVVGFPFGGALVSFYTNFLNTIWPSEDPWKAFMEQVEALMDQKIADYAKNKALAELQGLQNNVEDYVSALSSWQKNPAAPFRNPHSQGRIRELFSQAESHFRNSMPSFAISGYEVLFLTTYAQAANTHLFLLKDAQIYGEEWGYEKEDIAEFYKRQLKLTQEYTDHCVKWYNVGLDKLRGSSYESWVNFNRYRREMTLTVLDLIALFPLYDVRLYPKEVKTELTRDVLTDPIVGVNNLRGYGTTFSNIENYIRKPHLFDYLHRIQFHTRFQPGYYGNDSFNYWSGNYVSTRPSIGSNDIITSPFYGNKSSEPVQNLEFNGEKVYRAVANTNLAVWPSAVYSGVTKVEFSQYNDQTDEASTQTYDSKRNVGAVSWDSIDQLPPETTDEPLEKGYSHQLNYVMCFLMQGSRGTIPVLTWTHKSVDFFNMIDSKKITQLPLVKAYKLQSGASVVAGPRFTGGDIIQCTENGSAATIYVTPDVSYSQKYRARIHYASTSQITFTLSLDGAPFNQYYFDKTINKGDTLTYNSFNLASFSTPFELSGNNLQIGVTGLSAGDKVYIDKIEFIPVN
Experiment: direct ELISA: mCry3A coated at 1 ug/ml, RGS-His HRP detection
Write it as a number; the unit OD 450 nm goes unstated.

• synNAPS9 variant F31A (designed binder) RGSHHHHHHGSMVKVKFAQGGEEKEVDTSKIYRVPRHGKIVAFMYDDNGKGGFGHVTEKDAPKELLDMLARAEREKK = 1.4
• synNAPS9 variant G40A (designed binder) RGSHHHHHHGSMVKVKFAQGGEEKEVDTSKIYRVPRHGKIVFFMYDDNGKAGFGHVTEKDAPKELLDMLARAEREKK = 1.7
• synNAPS9 variant F42A (designed binder) RGSHHHHHHGSMVKVKFAQGGEEKEVDTSKIYRVPRHGKIVFFMYDDNGKGGAGHVTEKDAPKELLDMLARAEREKK = 0.2
• synNAPS9 variant P24A (designed binder) RGSHHHHHHGSMVKVKFAQGGEEKEVDTSKIYRVARHGKIVFFMYDDNGKGGFGHVTEKDAPKELLDMLARAEREKK = 0.5

# input for lookup
Give its Binding (OD 450 nm) value. Item: synNAPS9 variant R22A (designed binder) RGSHHHHHHGSMVKVKFAQGGEEKEVDTSKIYAVPRHGKIVFFMYDDNGKGGFGHVTEKDAPKELLDMLARAEREKK
1
